Each entry below lists one item and its recorded Logit bioavailability value.
organism: Rattus norvegicus; experiment: Bioavailability of compound was determined from urinary excretion data in rat, expressed as log; type: ADME, organism-based, Urine; details: in vivo
Keep the answer to the number alone.

Recorded results for 5 compounds are shown here.
record smiles	Logit bioavailability
CCOP(=O)(O)C(Cl)(Cl)P(=O)(O)OCC	3.71
CC(C)OP(=O)(OC(C)C)C(Cl)(Cl)P(=O)(O)O	3.19
CCCCCCOP(=O)(O)C(Cl)(Cl)P(=O)(O)O	3.4
CC(C)OP(=O)(O)C(Cl)(Cl)P(=O)(O)O	2.57
CCCCCCOP(=O)(O)C(Cl)(Cl)P(=O)(O)OCCCCCC	3.65

Please examine the following record next.
Would you kindly share the measured Logit bioavailability for `CC(C)OP(=O)(O)C(Cl)(Cl)P(=O)(OC(C)C)OC(C)C` ?
2.28

====

Below, each entry is listed alongside its reported Delta Ca.
test system: Rattus norvegicus; assay: In vivo inhibition of bone resorption tested in rat resorption assay measured at dose of 150 umol/kg after iv administration
Lab book: enter the figure in mM, no units written.

record smiles	value unit	measured
CC(C)OP(=O)(O)C(Cl)(Cl)P(=O)(O)OC(C)C	mM	1.09
CCOP(=O)(OCC)C(Cl)(Cl)P(=O)(OCC)OCC	mM	1.52
CCOP(=O)(O)C(Cl)(Cl)P(=O)(O)O	mM	0.77
CC(C)OP(=O)(OC(C)C)C(Cl)(Cl)P(=O)(OC(C)C)OC(C)C	mM	1.54
CCCCCCOP(=O)(O)C(Cl)(Cl)P(=O)(O)OCCCCCC	mM	1.43

Proceed to the following item.
Sample `CCOP(=O)(O)C(Cl)(Cl)P(=O)(O)OCC` — what was its Delta Ca?
1.05

====

assay: Bioavailability in rat as ratio of unchanged drug excreted in the urine after p.o dosing to that following i.v. administration; type: ADME, organism-based; conditions: po
I'd appreciate it if you could label each record using bioavailability and these ranges: bottom range (below 5%), center range (5% to below 30%), top range (30% or more)

Look over these answered cases.
record smiles	classification
CC(C)OP(=O)(O)C(Cl)(Cl)P(=O)(OC(C)C)OC(C)C	bottom range
CC(C)OP(=O)(OC(C)C)C(Cl)(Cl)P(=O)(OC(C)C)OC(C)C	top range
CCOP(=O)(O)C(Cl)(Cl)P(=O)(OCC)OCC	center range

Shifting focus to the compound that follows.
The entry to classify is `CC(C)OP(=O)(OC(C)C)C(Cl)(Cl)P(=O)(O)O` ; which class holds it?
center range

====

system: Rattus norvegicus; test: In vivo inhibition of bone resorption tested in rat resorption assay measured at dose of 150 umol/kg after iv administration, expressed as log
Rule: Log 1/delta/Ca of 3 or more gives t; anything lower gives f.

record smiles	system	classification
CCOP(=O)(O)C(Cl)(Cl)P(=O)(O)O	Rattus norvegicus	t
CC(C)OP(=O)(O)C(Cl)(Cl)P(=O)(O)O	Rattus norvegicus	f

Turning now to a further molecule:
Determine whether this molecule has Log 1/delta/Ca no lower than 3: `CC(C)OP(=O)(OC(C)C)C(Cl)(Cl)P(=O)(O)O`
f

====

// Delta Ca lookup, one value per entry
tested on: Rattus norvegicus; experiment: In vivo inhibition of bone resorption tested in rat resorption assay measured at dose of 150 umol/kg after iv administration
Lab book: enter the figure in mM, no units written.

Some solved cases for reference:
record smiles	Delta Ca (mM)
CC(C)OP(=O)(O)C(Cl)(Cl)P(=O)(O)O	1.27
CCOP(=O)(O)C(Cl)(Cl)P(=O)(OCC)OCC	0.7
CC(C)OP(=O)(O)C(Cl)(Cl)P(=O)(OC(C)C)OC(C)C	1.51
CCCCCCOP(=O)(OCCCCCC)C(Cl)(Cl)P(=O)(O)O	0.93

Recorded Delta Ca for `CC(C)OP(=O)(OC(C)C)C(Cl)(Cl)P(=O)(O)O` , please?
1.25

====

experiment: Partition coefficient (logP); type: physicochemical; details: octanol/water; read-out: logP
Parameter: logP. Scope: all listed entries.
Answer with a number only.

Consider the worked cases shown below.
record smiles	logP
CCCCCCOP(=O)(O)C(Cl)(Cl)P(=O)(O)OCCCCCC	-0.64
CC(C)OP(=O)(OC(C)C)C(Cl)(Cl)P(=O)(O)O	-3.56
CCCCCCOP(=O)(OCCCCCC)C(Cl)(Cl)P(=O)(O)O	-0.15
CCCCCCOP(=O)(O)C(Cl)(Cl)P(=O)(O)O	-2.75
CC(C)OP(=O)(O)C(Cl)(Cl)P(=O)(O)OC(C)C	-2.96
CC(C)OP(=O)(O)C(Cl)(Cl)P(=O)(OC(C)C)OC(C)C	-0.95

Consider the compound `CC(C)OP(=O)(OC(C)C)C(Cl)(Cl)P(=O)(OC(C)C)OC(C)C` and give its measured logP.
2.89

I would be grateful if you could share the reported logP for `CCOP(=O)(O)C(Cl)(Cl)P(=O)(O)OCC` .
-3.96

Returns the measured logP for the input compound. Input: `CCOP(=O)(O)C(Cl)(Cl)P(=O)(OCC)OCC`
-2.37

GET /values?readout=logP&item= `CCOP(=O)(OCC)C(Cl)(Cl)P(=O)(OCC)OCC`
1.31

# input compound: `CCCCCCOP(=O)(O)C(Cl)(Cl)P(=O)(OCCCCCC)OCCCCCC` ; wanted: its logP
4.89

I would be grateful if you could share the reported logP for `CC(C)OP(=O)(O)C(Cl)(Cl)P(=O)(O)O` .
-3.24

====

organism: Rattus norvegicus; experiment: Bioavailability of compound was determined from urinary excretion data in rat, expressed as log; type: ADME, organism-based, Urine; conditions: in vivo
reported property: Logit bioavailability
# respond with the number and nothing more

A selection of reference data follows.
record smiles	measured
CCOP(=O)(OCC)C(Cl)(Cl)P(=O)(OCC)OCC	2.72
CC(C)OP(=O)(OC(C)C)C(Cl)(Cl)P(=O)(OC(C)C)OC(C)C	3.67
CC(C)OP(=O)(O)C(Cl)(Cl)P(=O)(O)OC(C)C	2.3
CCOP(=O)(O)C(Cl)(Cl)P(=O)(OCC)OCC	2.88
CCCCCCOP(=O)(OCCCCCC)C(Cl)(Cl)P(=O)(O)O	2.91

Now for another entry.
Query (molecule): `CCOP(=O)(O)C(Cl)(Cl)P(=O)(O)O` ; field requested: Logit bioavailability
3.79

====

experiment: Bioavailability in rat as ratio of unchanged drug excreted in the urine after p.o dosing to that following i.v. administration; type: ADME, organism-based; conditions: po
MET means recorded bioavailability is 20% or above; NOT MET means it is below 20%.

Here are 5 compounds together with their reported answers.
record smiles	classification
CCOP(=O)(O)C(Cl)(Cl)P(=O)(O)OCC	MET
CCCCCCOP(=O)(OCCCCCC)C(Cl)(Cl)P(=O)(O)O	NOT MET
CCCCCCOP(=O)(O)C(Cl)(Cl)P(=O)(O)O	NOT MET
CCOP(=O)(OCC)C(Cl)(Cl)P(=O)(OCC)OCC	NOT MET
CCOP(=O)(O)C(Cl)(Cl)P(=O)(O)O	MET

Test whether the compound `CCCCCCOP(=O)(O)C(Cl)(Cl)P(=O)(O)OCCCCCC` records bioavailability of 20% or higher.
MET

Reported bioavailability reaches at least 20% for `CC(C)OP(=O)(O)C(Cl)(Cl)P(=O)(O)OC(C)C` ?
NOT MET

State whether the measured bioavailability reaches 20%, counting equality as reaching it, for `CC(C)OP(=O)(O)C(Cl)(Cl)P(=O)(O)O`
NOT MET

====

Log 1/delta/Ca listing for selected compounds.
system: Rattus norvegicus; assay: In vivo inhibition of bone resorption tested in rat resorption assay measured at dose of 150 umol/kg after iv administration, expressed as log
Answer using only a numeral; do not append any unit.

record smiles	system	Log 1/delta/Ca
CC(C)OP(=O)(O)C(Cl)(Cl)P(=O)(O)OC(C)C	Rattus norvegicus	2.96

# get_value(readout='Log 1/delta/Ca', item= `CCOP(=O)(O)C(Cl)(Cl)P(=O)(O)OCC` )
2.98

# get_value(readout='Log 1/delta/Ca', item= `CCOP(=O)(OCC)C(Cl)(Cl)P(=O)(OCC)OCC` )
2.81

What measured Log 1/delta/Ca goes with `CCOP(=O)(O)C(Cl)(Cl)P(=O)(OCC)OCC` ?
3.15

What measured Log 1/delta/Ca goes with `CC(C)OP(=O)(OC(C)C)C(Cl)(Cl)P(=O)(OC(C)C)OC(C)C` ?
2.81

Give its Log 1/delta/Ca value. Item: `CC(C)OP(=O)(O)C(Cl)(Cl)P(=O)(OC(C)C)OC(C)C`
2.82

I'd like to know its Log 1/delta/Ca. The compound in question is `CCCCCCOP(=O)(OCCCCCC)C(Cl)(Cl)P(=O)(O)O`
3.03

# get_value(readout='Log 1/delta/Ca', item= `CCCCCCOP(=O)(O)C(Cl)(Cl)P(=O)(O)OCCCCCC` )
2.84

Where do the numbers come from? From ChEMBL document CHEMBL1125601.
